Reference source for all entries: BigSolDB 2.1

Conditions: in n-propyl acetate, 323.15 K
Value Type: solubility (mole fraction)
Write no unit; give the number alone.

Problem: What solubility (mole fraction) value was documented for this compound, `Oc1ccc(Cl)c2cccnc12` ?
Result: 0.0696

###

Conditions: in 2-ethoxyethanol, 298.15 K
Value Type: solubility (mole fraction)
Write no unit; give the number alone.

Problem: What solubility (mole fraction) value was documented for this compound, `Oc1ccc(Cl)c2cccnc12` ?
Result: 0.0333

###

Conditions: in n-propyl acetate, 293.15 K
Value Type: solubility (mole fraction)
Write no unit; give the number alone.

Problem: What solubility (mole fraction) value was documented for this molecule, `Oc1ccc(Cl)c2cccnc12` ?
Result: 0.0251

###

Details: in 1,4-dioxane, 298.15 K
Value Type: solubility (mole fraction)

Problem: What solubility (mole fraction) value was documented for this compound, `Oc1ccc(Cl)c2cccnc12` ?
Result: 0.0751

###

Details: in 1,4-dioxane, 288.15 K
Value Type: solubility (mole fraction)
Write no unit; give the number alone.

Problem: What solubility (mole fraction) value was documented for this compound, `Oc1ccc(Cl)c2cccnc12` ?
Result: 0.0556

###

Conditions: in n-propyl acetate, 318.15 K
Value Type: solubility (mole fraction)
Write no unit; give the number alone.

Problem: What solubility (mole fraction) value was documented for this molecule, `Oc1ccc(Cl)c2cccnc12` ?
Result: 0.0587

###

Details: in n-propyl acetate, 303.15 K
Value Type: solubility (mole fraction)
Write no unit; give the number alone.

Problem: What solubility (mole fraction) value was documented for this compound, `Oc1ccc(Cl)c2cccnc12` ?
Result: 0.0355

###

Settings: in n-propyl acetate, 313.15 K
Value Type: solubility (mole fraction)
Write no unit; give the number alone.

Problem: What solubility (mole fraction) value was documented for this compound, `Oc1ccc(Cl)c2cccnc12` ?
Result: 0.0495

###

Conditions: in 1,4-dioxane, 323.15 K
Value Type: solubility (mole fraction)
Write no unit; give the number alone.

Problem: What solubility (mole fraction) value was documented for this compound, `Oc1ccc(Cl)c2cccnc12` ?
Result: 0.161

###

Conditions: in n-propyl acetate, 278.15 K
Value Type: solubility (mole fraction)
Write no unit; give the number alone.

Problem: What solubility (mole fraction) value was documented for this molecule, `Oc1ccc(Cl)c2cccnc12` ?
Result: 0.015

###

Conditions: in n-propyl acetate, 308.15 K
Value Type: solubility (mole fraction)

Problem: What solubility (mole fraction) value was documented for this compound, `Oc1ccc(Cl)c2cccnc12` ?
Result: 0.0416

###

Details: in 1,4-dioxane, 313.15 K
Value Type: solubility (mole fraction)
Write no unit; give the number alone.

Problem: What solubility (mole fraction) value was documented for this compound, `Oc1ccc(Cl)c2cccnc12` ?
Result: 0.119

###

Conditions: in n-propyl acetate, 288.15 K
Value Type: solubility (mole fraction)
Write no unit; give the number alone.

Problem: What solubility (mole fraction) value was documented for this compound, `Oc1ccc(Cl)c2cccnc12` ?
Result: 0.0213

###

Conditions: in 2-ethoxyethanol, 323.15 K
Value Type: solubility (mole fraction)
Write no unit; give the number alone.

Problem: What solubility (mole fraction) value was documented for this molecule, `Oc1ccc(Cl)c2cccnc12` ?
Result: 0.0768

###

Details: in 2-ethoxyethanol, 318.15 K
Value Type: solubility (mole fraction)
Write no unit; give the number alone.

Problem: What solubility (mole fraction) value was documented for this compound, `Oc1ccc(Cl)c2cccnc12` ?
Result: 0.0646
